All values here come from patent US20260256936A1.

Target: T1, CLL1 on CLL1-expressing cells (U937, HL60) (human, UniProt Q5QGZ9 1-265)
T1 sequence (looked up): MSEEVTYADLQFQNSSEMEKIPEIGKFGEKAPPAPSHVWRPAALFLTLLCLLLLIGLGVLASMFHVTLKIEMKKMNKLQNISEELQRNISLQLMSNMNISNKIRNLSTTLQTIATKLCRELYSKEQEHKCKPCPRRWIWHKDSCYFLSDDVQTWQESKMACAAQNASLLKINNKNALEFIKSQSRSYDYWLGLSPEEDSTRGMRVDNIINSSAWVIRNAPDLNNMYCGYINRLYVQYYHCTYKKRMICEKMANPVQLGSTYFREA
Experiment: cell-based or functional assay
quantity-measured: EC50 (nM) direct cellular killing, U937

- ADC3-4 (antibody, human IgG1, kappa, V domains shown, conjugator-linker-payload on cysteine thiols after TCEP reduction; positions not given) VH: EVQLVQSGAEVKKPGASVKVSCKASGYSFTDYYMHWVRQAPGQGLEWIGRINPYAGAAFYSQNFKDRVTLTVDTSTSTAYLELSSLRSEDTAVYYCAIERGADLEGYAMDYWGQGTLVTVSS VL: DIQMTQSPSSLSASVGDRVTITCRASQSVSTSSYNYMHWYQQKPGKPPKLLIKYASNLESGVPSRFSGSGSGTDFTLTISSLQPEDFATYYCQHSWEIPLTFGQGTKVEIKR: 0.2
- ADC3-2 (antibody, human IgG1, kappa, V domains shown, conjugator-linker-payload on cysteine thiols after TCEP reduction; positions not given) VH: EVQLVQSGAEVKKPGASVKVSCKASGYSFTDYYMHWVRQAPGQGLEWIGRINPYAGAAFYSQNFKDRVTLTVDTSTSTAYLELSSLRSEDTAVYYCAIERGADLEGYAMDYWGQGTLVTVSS VL: DIQMTQSPSSLSASVGDRVTITCRASQSVSTSSYNYMHWYQQKPGKPPKLLIKYASNLESGVPSRFSGSGSGTDFTLTISSLQPEDFATYYCQHSWEIPLTFGQGTKVEIKR: 0.2
- ADC3-A (antibody, human IgG1, kappa, V domains shown, conjugator-linker-payload on cysteine thiols after TCEP reduction; positions not given) VH: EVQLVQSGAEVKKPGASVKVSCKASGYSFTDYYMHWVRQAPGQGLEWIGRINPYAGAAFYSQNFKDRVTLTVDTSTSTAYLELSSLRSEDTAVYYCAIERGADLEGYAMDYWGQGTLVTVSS VL: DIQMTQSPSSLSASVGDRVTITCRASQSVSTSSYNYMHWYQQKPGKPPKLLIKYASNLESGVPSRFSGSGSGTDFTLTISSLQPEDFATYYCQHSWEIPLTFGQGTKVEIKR: 0.8
- ADC3-1 (antibody, human IgG1, kappa, V domains shown, conjugator-linker-payload on cysteine thiols after TCEP reduction; positions not given) VH: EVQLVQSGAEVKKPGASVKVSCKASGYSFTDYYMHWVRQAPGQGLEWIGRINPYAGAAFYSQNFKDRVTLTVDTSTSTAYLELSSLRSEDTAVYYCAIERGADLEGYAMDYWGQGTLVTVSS VL: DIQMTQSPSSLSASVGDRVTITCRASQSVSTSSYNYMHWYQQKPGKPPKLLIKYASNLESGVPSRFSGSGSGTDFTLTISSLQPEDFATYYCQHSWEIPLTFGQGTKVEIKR: 0.5
- ADC3-3 (antibody, human IgG1, kappa, V domains shown, conjugator-linker-payload on cysteine thiols after TCEP reduction; positions not given) VH: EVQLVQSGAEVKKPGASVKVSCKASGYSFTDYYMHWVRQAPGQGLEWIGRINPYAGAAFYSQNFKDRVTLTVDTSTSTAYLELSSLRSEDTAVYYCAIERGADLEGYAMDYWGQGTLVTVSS VL: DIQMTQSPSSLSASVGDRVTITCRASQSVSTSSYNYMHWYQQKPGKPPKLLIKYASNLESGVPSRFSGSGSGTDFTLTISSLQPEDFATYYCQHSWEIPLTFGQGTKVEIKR: 0.2
